Test system: IL-1β mRNA expression
TEST METHOD NOTES: IL-1β mRNA expression (RTqPCR) in LPS-stimulated human articular chondrocytes; Chou-Talalay median-effect and combination index analysis
Format: cell-based
STATED CONDITIONS: Chondrocyte, 4 h, curcumin/β-caryophyllene experiment, LPS 2 µg/ml, combination molar ratio 3.6:1, read-out: IC50, reduction of IL-1β mRNA
Listing: IC50 of selected molecules
Supply the numeric figure in µM, leaving out any unit text.

{"columns": ["MOLECULAR STRING", "IC50, µM"],
 "data": [
  ["C=C1CC/C=C(\\C)CC[C@@H]2[C@@H]1CC2(C)C", 48.9]
]}

Let us examine a further case.
Query COc1cc(/C=C/C(=O)CC(=O)/C=C/c2ccc(O)c(OC)c2)ccc1O yields IC50 of 13.6
